All figures here come from paper PMC9221290.

- Test name: in vitro
- Conditions used: human, % of cell viability compared to control, 2. measurement, HepG2, 5 µM
Property label: viability at 5 µM (%)
Please state the figure in %; there is no need to write the unit.

Quick one: viability at 5 µM of COc1ccc2cc3[n+](cc2c1OCc1ccc(Cl)c(Cl)c1)CCc1cc2c(cc1-3)OCO2 [16k] ?
79.2

Give its viability at 5 µM value. Item: COc1ccc2cc3[n+](cc2c1OCc1ccccc1Br)CCc1cc2c(cc1-3)OCO2 [16e, 9-O-(2-brombenzyl)berberine chloride]
66.2

Given COc1ccc2cc3[n+](cc2c1OCc1cccc(C)c1)CCc1cc2c(cc1-3)OCO2 [16c, 9-O-(3-methylbenzyl)berberine chloride] , state its recorded viability at 5 µM.
78.7

Could you tell me which viability at 5 µM is on file for COc1ccc2cc3[n+](cc2c1OCc1cccc(Cl)c1)CCc1cc2c(cc1-3)OCO2 [16h, 9-O-(3-chlorbenzyl)berberine chloride] ?
67.4

Given COc1ccc2cc3[n+](cc2c1OCc1ccc(C)cc1)CCc1cc2c(cc1-3)OCO2 [16d, 9-O-(4-methylbenzyl)berberine chloride] , state its recorded viability at 5 µM.
64.6

Which viability at 5 µM value belongs to COc1ccc2cc3[n+](cc2c1OCc1ccc(Br)cc1)CCc1cc2c(cc1-3)OCO2 [16g, 9-O-(4-brombenzyl)berberine chloride] ?
76.3

Would you kindly share the measured viability at 5 µM for COc1ccc2cc3[n+](cc2c1OCc1ccccc1C)CCc1cc2c(cc1-3)OCO2 [16b, 9-O-(2-methylbenzyl)berberine chloride] ?
87.1

What viability at 5 µM value was documented for this compound, COc1ccc2cc3[n+](cc2c1OCc1cccc(Br)c1)CCc1cc2c(cc1-3)OCO2 [16f, 9-O-(3-brombenzyl)berberine chloride] ?
76.8

Form field: reported viability at 5 µM of COc1ccc2cc3[n+](cc2c1OCc1ccccc1)CCc1cc2c(cc1-3)OCO2 [16a, 9-O-benzylberberine chloride]
73

viability at 5 µM for COc1ccc2cc3[n+](cc2c1OCc1ccc(Cl)cc1)CCc1cc2c(cc1-3)OCO2 [16i, 9-O-(4-chlorbenzyl)berberine chloride] ?
78

###

- Test name: in vitro
- Conditions used: human, % of cell viability compared to control, 1. measurement, HepG2, 1 µM
Property label: viability at 1 µM (%)
# unit: % | format: bare number

Recorded viability at 1 µM of COc1ccc2cc3[n+](cc2c1OCc1ccccc1Br)CCc1cc2c(cc1-3)OCO2 [16e, 9-O-(2-brombenzyl)berberine chloride] , please.
96.3

Fill in the blank: the reported viability at 1 µM of COc1ccc2cc3[n+](cc2c1OCc1ccc(Br)cc1)CCc1cc2c(cc1-3)OCO2 [16g, 9-O-(4-brombenzyl)berberine chloride] is ____.
101

Fill in: viability at 1 µM of COc1ccc2cc3[n+](cc2c1OCc1cccc(C)c1)CCc1cc2c(cc1-3)OCO2 [16c, 9-O-(3-methylbenzyl)berberine chloride] is ___
87.2

Sample COc1ccc2cc3[n+](cc2c1OCc1ccc(Cl)c(Cl)c1)CCc1cc2c(cc1-3)OCO2 [16k] — what was its viability at 1 µM?
97.6

Entry COc1ccc2cc3[n+](cc2c1OCc1ccccc1C)CCc1cc2c(cc1-3)OCO2 [16b, 9-O-(2-methylbenzyl)berberine chloride] : reported viability at 1 µM = ?
96

What viability at 1 µM value was documented for this molecule, COc1ccc2cc3[n+](cc2c1OCc1cccc(Cl)c1)CCc1cc2c(cc1-3)OCO2 [16h, 9-O-(3-chlorbenzyl)berberine chloride] ?
65.4

Given COc1ccc2cc3[n+](cc2c1OCc1ccc(C)cc1)CCc1cc2c(cc1-3)OCO2 [16d, 9-O-(4-methylbenzyl)berberine chloride] , state its recorded viability at 1 µM.
96.1

If you can, please state the reported viability at 1 µM value of COc1ccc2cc3[n+](cc2c1OCc1cccc(Br)c1)CCc1cc2c(cc1-3)OCO2 [16f, 9-O-(3-brombenzyl)berberine chloride] .
95.5

I'd like to know its viability at 1 µM. The molecule in question is COc1ccc2cc3[n+](cc2c1OCc1ccccc1)CCc1cc2c(cc1-3)OCO2 [16a, 9-O-benzylberberine chloride]
93.4

viability at 1 µM lookup needed for COc1ccc2cc3[n+](cc2c1OCc1ccc(Cl)cc1)CCc1cc2c(cc1-3)OCO2 [16i, 9-O-(4-chlorbenzyl)berberine chloride] , thanks.
101

###

- Test name: in vitro
- Conditions used: human, % of cell viability compared to control, 3. measurement, HepG2, 25 µM
Assignment: determine reported viability at 25 µM for the given molecules.
// units = %; emit number, no label

# query: viability at 25 µM of entry COc1ccc2cc3[n+](cc2c1OCc1ccc(Cl)c(Cl)c1)CCc1cc2c(cc1-3)OCO2 [16k]
43.6

Record request: viability at 25 µM value, item COc1ccc2cc3[n+](cc2c1OCc1ccc(Br)cc1)CCc1cc2c(cc1-3)OCO2 [16g, 9-O-(4-brombenzyl)berberine chloride]
45.8

Field request: viability at 25 µM | item: COc1ccc2cc3[n+](cc2c1OCc1cccc(Br)c1)CCc1cc2c(cc1-3)OCO2 [16f, 9-O-(3-brombenzyl)berberine chloride]
43.7

Given the molecule COc1ccc2cc3[n+](cc2c1OCc1ccccc1C)CCc1cc2c(cc1-3)OCO2 [16b, 9-O-(2-methylbenzyl)berberine chloride] , what is its reported viability at 25 µM?
51.6

###

Kindly state viability at 40 µM for each of the entries shown.
- Test name: in vitro
- Conditions used: human, % of cell viability compared to control, 1. measurement, HepG2, 40 µM
Your answer should be a plain number; it is taken to be in %.

Please look up its viability at 40 µM: COc1ccc2cc3[n+](cc2c1OCc1ccccc1Br)CCc1cc2c(cc1-3)OCO2 [16e, 9-O-(2-brombenzyl)berberine chloride]
24.6

Query (compound): COc1ccc2cc3[n+](cc2c1OCc1ccc(Cl)cc1)CCc1cc2c(cc1-3)OCO2 [16i, 9-O-(4-chlorbenzyl)berberine chloride] ; field requested: viability at 40 µM
24.7

Given the entry COc1ccc2cc3[n+](cc2c1OCc1ccccc1)CCc1cc2c(cc1-3)OCO2 [16a, 9-O-benzylberberine chloride] , report its measured viability at 40 µM.
56.2

Value lookup for viability at 40 µM; key = COc1ccc2cc3[n+](cc2c1OCc1cccc(C)c1)CCc1cc2c(cc1-3)OCO2 [16c, 9-O-(3-methylbenzyl)berberine chloride]
54.5

###

- Test name: in vitro
- Conditions used: human, % of cell viability compared to control, 2. measurement, HepG2, 30 µM
Property label: viability at 30 µM (%)
Numeric only. Scale: %

Request the reported viability at 30 µM associated with COc1ccc2cc3[n+](cc2c1OCc1ccc(Cl)cc1)CCc1cc2c(cc1-3)OCO2 [16i, 9-O-(4-chlorbenzyl)berberine chloride]
40

If you can, please state the reported viability at 30 µM value of COc1ccc2cc3[n+](cc2c1OCc1ccccc1Br)CCc1cc2c(cc1-3)OCO2 [16e, 9-O-(2-brombenzyl)berberine chloride] .
36.5

###

- Tested on: Mtb H37Ra ITM-M006710 (ATCC 9431)
- Test name: Antimycobacterial microdilution broth assay (resazurin), Mtb H37Ra
- Type: cell-based, Mycobacterium tuberculosis
- Conditions used: Mycobacterium tuberculosis, calculated from MIC (µg/mL) and MW; read-out: MIC Mtb H37Ra
Property label: log10(MIC) (log10 of the value in µM)
Log scale reminder: MIC in µM, then log10 taken.

Consider the compound COc1ccc2c(c1OC)C(OC1c3c(ccc(OC)c3OC)-c3ccc4cc5c(cc4c3N1C)OCO5)N(C)c1c-2ccc2cc3c(cc12)OCO3 (stereo not shown) [compound 5, bis-[6-(5,6-dihydrochelerythrinyl)]ether] and give its measured log10(MIC).
1.64

What does the record list as log10(MIC) for COc1ccc2cc3[n+](cc2c1OCc1ccccc1Br)CCc1cc2c(cc1-3)OCO2 [16e, 9-O-(2-brombenzyl)berberine chloride] ?
0.47

I have this compound here, COc1ccc2cc3[n+](cc2c1OCc1ccccc1C)CCc1cc2c(cc1-3)OCO2 [16b, 9-O-(2-methylbenzyl)berberine chloride] , and I need its recorded log10(MIC).
1.23

What value of log10(MIC) has been reported for the following compound? COc1ccc2cc3[n+](cc2c1OCc1cccc(C)c1)CCc1cc2c(cc1-3)OCO2 [16c, 9-O-(3-methylbenzyl)berberine chloride]
1.13

Entry COc1ccc2cc3[n+](cc2c1OCc1cccc(Cl)c1)CCc1cc2c(cc1-3)OCO2 [16h, 9-O-(3-chlorbenzyl)berberine chloride] has what log10(MIC)?
0.77

###

- Test name: in vitro
- Conditions used: human, % of cell viability compared to control, 3. measurement, HepG2, 30 µM
Property label: viability at 30 µM (%)
I only need the number, in %, no unit after it.

Dear colleague, I am looking for the recorded viability at 30 µM of the following molecule: COc1ccc2cc3[n+](cc2c1OCc1ccc(Cl)cc1)CCc1cc2c(cc1-3)OCO2 [16i, 9-O-(4-chlorbenzyl)berberine chloride]
45

Could you tell me which viability at 30 µM is on file for COc1ccc2cc3[n+](cc2c1OCc1ccccc1Br)CCc1cc2c(cc1-3)OCO2 [16e, 9-O-(2-brombenzyl)berberine chloride] ?
34.5
